tested on: BaF3 cells with engineered EGFR d746-750/T790M; assay: 3-Day CellTiter Glo (CTG) cell proliferation assay, BaF3 EGFR d746-750/T790M; assay type: cell-based; settings: Mus musculus; BaF3 EGFR d746-750/T790M cells, 3-day CTG proliferation, 72 hours
pIC50: −log10 of the molar value.
We use 9 as the dividing line for pIC50: on or above the line is true, below is false.

Illustrative cases are given below, each with its answer.
Cc1nc2cc3c(n[nH]c13)/C=C/c1c(OC(C)C)nn(CCO)c1CN(C)C[C@H](C)Oc1c-2cnn1C [Ex. 40] | false
CCOc1nn([C@@H](C)CO)c2c1/C=C/c1n[nH]c3cnc(cc13)-c1c(C)nn(C)c1OC[C@@H](C)N(C)C2 [Ex. 97] | true

Now turn to the next compound.
Query block: Hi team, for CNc1nn([C@@H](C)CO)c2c1/C=C/c1n[nH]c3c(C)nc(cc13)-c1c(C)nn(C)c1O[C@@H](C)CN(C)C2 [Ex. 101] , is the recorded pIC50 at or above 9?
Result block: false

* * *

biological target: EGFR (L858R/T790M/C797S) (Homo sapiens, UniProt P00533, C797S/L858R/T790M); assay: HotSpot radiometric kinase assay, inhibition of EGFR L858R/T790M/C797S mutant; settings: 33P ATP, room temperature, 120 m
Sequence (P00533 25-1210 T790M/C797S/L858R): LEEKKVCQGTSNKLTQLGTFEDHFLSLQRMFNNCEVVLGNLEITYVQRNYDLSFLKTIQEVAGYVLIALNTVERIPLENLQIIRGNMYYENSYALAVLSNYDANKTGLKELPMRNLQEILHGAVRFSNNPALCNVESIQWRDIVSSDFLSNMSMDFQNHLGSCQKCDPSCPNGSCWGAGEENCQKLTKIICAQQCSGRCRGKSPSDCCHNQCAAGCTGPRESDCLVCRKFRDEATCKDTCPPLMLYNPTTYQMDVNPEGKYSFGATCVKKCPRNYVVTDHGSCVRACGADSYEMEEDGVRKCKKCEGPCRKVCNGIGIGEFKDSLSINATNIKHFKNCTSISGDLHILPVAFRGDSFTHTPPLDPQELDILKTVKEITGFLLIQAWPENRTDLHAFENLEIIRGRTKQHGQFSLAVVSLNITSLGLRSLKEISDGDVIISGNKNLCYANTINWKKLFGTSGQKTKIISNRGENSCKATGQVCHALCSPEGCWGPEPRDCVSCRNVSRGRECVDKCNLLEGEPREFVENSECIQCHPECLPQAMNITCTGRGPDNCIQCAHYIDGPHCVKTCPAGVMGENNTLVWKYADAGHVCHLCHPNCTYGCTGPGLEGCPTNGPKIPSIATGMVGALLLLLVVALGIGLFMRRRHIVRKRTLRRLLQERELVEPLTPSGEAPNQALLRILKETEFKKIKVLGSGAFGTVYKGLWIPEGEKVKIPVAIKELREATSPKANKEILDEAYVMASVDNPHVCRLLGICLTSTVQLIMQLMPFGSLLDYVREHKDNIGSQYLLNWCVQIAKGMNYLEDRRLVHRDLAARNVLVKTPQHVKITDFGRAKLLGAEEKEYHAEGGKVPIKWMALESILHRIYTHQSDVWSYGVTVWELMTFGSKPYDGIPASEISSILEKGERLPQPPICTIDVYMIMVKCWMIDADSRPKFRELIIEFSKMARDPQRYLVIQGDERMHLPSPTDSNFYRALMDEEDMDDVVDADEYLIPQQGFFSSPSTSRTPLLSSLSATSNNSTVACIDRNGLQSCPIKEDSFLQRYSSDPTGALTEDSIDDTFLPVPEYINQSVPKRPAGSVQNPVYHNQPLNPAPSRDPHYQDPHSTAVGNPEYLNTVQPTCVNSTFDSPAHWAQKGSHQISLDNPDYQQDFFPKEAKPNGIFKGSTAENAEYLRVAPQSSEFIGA
# pIC50 values compiled below
Conceptually, pIC50 converts a concentration in mol/L into minus its log10.

Previously resolved entries follow.
Cc1nn(C)c2c1-c1cc3c(n[nH]c3c(C)n1)/C=C/c1c(OCC#N)nn(CCO)c1CN(C)C[C@H](C)O2 [Ex. 63] | 9.22
CCOc1nn([C@@H](C)CO)c2c1/C=C/c1n[nH]c3c(C)nc(cc13)-c1cnn(C)c1O[C@@H](C)CN(C)C2 [Ex. 45] | 9.28
CCc1nn(CCO)c2c1/C=C/c1n[nH]c3cnc(cc13)-c1c(C)nn(C)c1O[C@@H](C)CN(CC)C2 [Ex. 62] | 9.13
CCOc1nn([C@@H](C)CO)c2c1/C=C/c1n[nH]c3cnc(cc13)-c1c(C)nn(C)c1OC[C@H]1CCCN1C2 [Ex. 65] | 8.80
CCOc1nn(CCO)c2c1/C=C/c1n[nH]c3cnc(cc13)-c1c(C)nn(C)c1O[C@@H](C)CN(C(C)C)C2 [Ex. 8] | 9.32

Query block: Endpoint output: pIC50 of CCN1Cc2c(c(C)nn2CCO)/C=C/c2n[nH]c3cnc(cc23)-c2c(C)nn(C)c2O[C@@H](C)C1 [Ex. 13] . Value?
Result block: 9.72

Query block: Endpoint output: pIC50 of CCOc1nn([C@@H](C)CO)c2c1/C=C/c1n[nH]c3cnc(cc13)-c1c(C)nn(C)c1O[C@@H](C)CN(C1CC1)C2 [Ex. 110] . Value?
Result block: 9.60

Query block: Endpoint output: pIC50 of CCOc1nn([C@@H](C)CO)c2c1/C=C/c1n[nH]c3c(C)nc(cc13)-c1c(C)nn(C)c1O[C@H](C)[C@H]1CCCN1C2 [Ex. 180] . Value?
Result block: 9.89

* * *

target: pEGFR, PC-9 cells (d746-750 EGFR) (Homo sapiens, UniProt P00533, DEL746-750); construct: pEGFR (Tyr1068) TR-FRET; test: Cellular EGFR phosphorylation assay (LANCE Ultra TR-FRET) in PC-9 cells; type: cell-based; settings: 4 hours at 37° C., read-out: PC-9 pEGFR IC50
Sequence (P00533 with tags, fused parts or gaps DEL746-750): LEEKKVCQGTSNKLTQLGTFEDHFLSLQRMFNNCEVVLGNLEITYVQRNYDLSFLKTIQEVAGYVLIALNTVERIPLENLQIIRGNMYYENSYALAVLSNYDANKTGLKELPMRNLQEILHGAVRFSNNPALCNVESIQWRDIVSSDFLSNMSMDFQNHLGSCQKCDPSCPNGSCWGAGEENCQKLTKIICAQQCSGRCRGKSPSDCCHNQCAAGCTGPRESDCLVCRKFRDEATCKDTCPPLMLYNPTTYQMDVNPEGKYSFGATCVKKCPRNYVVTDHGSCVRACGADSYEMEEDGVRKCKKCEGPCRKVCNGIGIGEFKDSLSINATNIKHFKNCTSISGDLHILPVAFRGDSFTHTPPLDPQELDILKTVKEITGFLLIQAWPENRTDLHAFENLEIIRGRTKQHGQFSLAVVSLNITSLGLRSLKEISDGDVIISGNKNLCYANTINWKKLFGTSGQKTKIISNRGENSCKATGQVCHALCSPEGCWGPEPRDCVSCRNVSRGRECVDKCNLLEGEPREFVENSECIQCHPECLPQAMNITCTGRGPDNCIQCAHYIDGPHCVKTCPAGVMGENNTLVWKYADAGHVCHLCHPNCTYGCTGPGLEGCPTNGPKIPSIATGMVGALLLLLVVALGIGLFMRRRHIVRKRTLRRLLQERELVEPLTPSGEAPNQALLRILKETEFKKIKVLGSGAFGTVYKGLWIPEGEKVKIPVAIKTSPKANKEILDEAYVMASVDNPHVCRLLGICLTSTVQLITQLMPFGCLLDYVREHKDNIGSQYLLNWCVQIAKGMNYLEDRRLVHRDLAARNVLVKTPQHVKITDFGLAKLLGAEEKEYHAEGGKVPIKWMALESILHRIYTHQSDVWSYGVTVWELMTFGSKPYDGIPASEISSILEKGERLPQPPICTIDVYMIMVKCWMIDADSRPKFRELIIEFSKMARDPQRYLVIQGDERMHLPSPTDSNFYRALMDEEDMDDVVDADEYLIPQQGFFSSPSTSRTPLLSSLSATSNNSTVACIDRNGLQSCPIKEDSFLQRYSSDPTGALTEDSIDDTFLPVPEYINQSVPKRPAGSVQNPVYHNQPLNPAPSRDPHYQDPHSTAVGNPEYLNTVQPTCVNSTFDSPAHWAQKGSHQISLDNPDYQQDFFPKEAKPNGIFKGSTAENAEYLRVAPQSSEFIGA
# IC50 values compiled below
# unit: nM | format: bare number

Previously resolved entries follow.
CCOc1nn([C@@H](C)CO)c2c1/C=C/c1n[nH]c3c(C)nc(cc13)-c1cnn(C)c1O[C@@H](C)CN(C)C2 [Ex. 45] | 2.15
CCOc1nn(CCO)c2c1/C=C/c1n[nH]c3cnc(cc13)-c1c(C)nn(C)c1O[C@H](C)[C@H]1CCCN1C2 [Ex. 33] | 1.5
CCOc1nn([C@@H](C)CO)c2c1/C=C/c1n[nH]c3cnc(cc13)-c1c(C)nn(C)c1OCCN(C)C2 [Ex. 59] | 1.96

Query block: Endpoint output: IC50 of Cc1nn(C)c2c1/C=C/c1n[nH]c3c(C)nc(cc13)-c1c(C)nn(C)c1O[C@@H](C)CN(C)C2 [Ex. 103] . Value?
Result block: 9.78

Query block: Endpoint output: IC50 of CCc1nn(CCO)c2c1/C=C/c1n[nH]c3cnc(cc13)-c1c(C)nn(C)c1O[C@@H](C)CN(C)C2 [Ex. 60] . Value?
Result block: 2.39

Query block: Endpoint output: IC50 of Cc1nn(C)c2c1-c1cc3c(n[nH]c3c(C)n1)/C=C/c1c(OCC#N)nn([C@@H](C)CO)c1CN(CC(F)F)C[C@H](C)O2 [Ex. 151] . Value?
Result block: 2.04

Query block: Endpoint output: IC50 of CC(C)Oc1nn(CCO)c2c1/C=C/c1n[nH]c3cnc(cc13)-c1cnn(C)c1O[C@H](C)CN(C(C)C)C2 [Ex. 3] . Value?
Result block: 14.7

Query block: Endpoint output: IC50 of CCOc1nn([C@H](C)CO)c2c1/C=C/c1n[nH]c3cnc(cc13)-c1c(C)nn(C)c1O[C@@H](C)CN(C)C2 [Ex. 88] . Value?
Result block: 1.62

Query block: Endpoint output: IC50 of CCOc1nn([C@@H](C)CO)c2c1/C=C/c1n[nH]c3cnc(cc13)-c1c(C)nn(C)c1O[C@H](C)CN(C)C2 [Ex. 35] . Value?
Result block: 1.56
